Known %Inh of a selection of molecules
- System: AMPK-alpha1
- Construct: gene PRKAA1
- CONDITION_SUMMARY: concentration: 1 μM, replicates: in singlicate; n = 1;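 further: KINOMEscan kinase panel screen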
Reply numerically in %, unit not repeated.

Reference set (3 entries):
>>> meas_value("CN1CCN(Cc2ccc(NC(=O)Nc3ccc(N(C)c4ccnc(Nc5ccc(CS(C)(=O)=O)cc5)n4)cc3)cc2)CC1.Cl [GW827654]")
34
>>> meas_value("CCn1c(-c2nonc2N)nc2c(-c3ccccc3)ncc(OCCCN)c21.O=C(O)C(F)(F)F.O=C(O)C(F)(F)F [GSK260205]")
0
>>> meas_value("CC(C)NCC(Cc1ccccc1)NC(=O)c1cc(Br)c(-c2ccnc3[nH]ccc23)s1.Cl.Cl (stereo not shown) [GSK1383281]")
57

Next:
For the molecule COc1cccc(-c2nc(-c3ccccc3)[nH]c2-c2ccncc2)c1 [SB-610250] , what %Inh is on record?
17

* * *

- Tested on: JNK3
- Construct: gene MAPK10
- CONDITION_SUMMARY: concentration: 1 μM, replicates: in singlicate; n = 1
METRIC_NAME: %Inh (%)
Reply numerically in %, unit not repeated.

Reference set (4 entries):
>>> meas_value("Cc1nn2c(=O)cc(N3CCO[C@H](C)C3)nc2n1Cc1cccc(Cl)c1Cl [GSK2373693]")
7
>>> meas_value("CN1CCN(Cc2ccc(NC(=O)Nc3ccc(N(C)c4ccnc(Nc5ccc(CS(C)(=O)=O)cc5)n4)cc3)cc2)CC1.Cl [GW827654]")
88
>>> meas_value("Cc1ccc(NC(=O)c2ccc(Cl)c(Cl)c2)cc1-c1ccc(C(=O)Nc2ccncc2)cc1 [GSK1398460]")
0
>>> meas_value("Cc1ccc(NC(=O)c2ccnc(N3CCCCC3)c2)cc1-c1ccc(C(=O)NCC2CC2)cc1 [GW775610]")
28

For the molecule Cl.Cl.NC(CNC(=O)c1cc(Br)c(-c2ccnc3[nH]ccc23)s1)c1ccccc1 (stereo not shown) [GSK1322949] , what %Inh is on record?
28

For the molecule CSc1ccc(NC2=C(c3ccc(Cl)cc3)C(=O)NC2=O)cc1 [SB-317658] , what %Inh is on record?
3

For the molecule Cc1ccc(NC(=O)c2cccc(N3CCCCC3)c2)cc1-c1ccc(C(=O)NCC2CC2)cc1 [GSK1917008] , what %Inh is on record?
10

For the molecule COc1cccc(CC(=O)N2CCc3cc(-c4cn(C)c5ncnc(N)c45)ccc32)c1 [GSK2608899] , what %Inh is on record?
3

For the molecule COc1cccc(-c2nc(-c3ccccc3)[nH]c2-c2ccncc2)c1 [SB-610250] , what %Inh is on record?
90

For the molecule COC(=O)Nc1nc2ccc(Oc3ccc(CC(=O)Nc4cc(C(F)(F)F)ccc4F)cc3)cc2[nH]1 [GW680903] , what %Inh is on record?
0

For the molecule CCn1cnc2c(NCc3ccccc3)ncnc21 [SKF-96418] , what %Inh is on record?
0

* * *

Known %Inh of a selection of compounds
- System: TRKC
- Construct: gene NTRK3
- CONDITION_SUMMARY: concentration: 1 μM, replicates: in singlicate; n = 1
Reply numerically in %, unit not repeated.

>>> meas_value("COc1cc(Nc2nccc(N3CCC(NS(=O)(=O)c4ccc(NC(C)=O)cc4)CC3)n2)cc(OC)c1OC [GSK1379825]")
15
>>> meas_value("N#Cc1cnc2cc(-c3cnc(CNCCN4CCOCC4)s3)ccc2c1Nc1ccc(Oc2ccccc2)cc1 [GW664114]")
46
>>> meas_value("CN(c1ccc(NC(=O)N2CCN(CCCN3CCOCC3)CC2)cc1)c1ccnc(Nc2ccc(CS(C)(=O)=O)cc2)n1.Cl [GW830899]")
0

Next:
For the compound Cn1cc(-c2cnc(N)c3c(-c4ccc5c(c4)CCN5C(=O)Cc4ccccc4)csc23)cn1 [GSK2593074] , what %Inh is on record?
66
